Below, each entry is listed with its recorded SPOT peptide array binding signal intensity.
- system_under_test: SpAbp1-D1
- method_summary: SPOT peptide array binding signal intensity (averaged, normalized) (arbitrary units (background-subtracted, floor 0; scale differs between SH3 domains)); higher = stronger binding of the SH3 domain to the peptide
Lab note: jot down the number only; don't add units.

| binder | readout_number |
| --- | --- |
| RRARRQMGIPTISQV | 416 |
| LKHGWKPLRPIKLIS | 166 |
| IHTRRPSSTSQYLIR | 826 |

For NPNRRAPRRPLSTQH the binder record lists SPOT peptide array binding signal intensity as 313

For IVNKPLPPLPVAGSS the binder record lists SPOT peptide array binding signal intensity as 1580

For RKLRTVPGVPLIHLT the binder record lists SPOT peptide array binding signal intensity as 17.5

For NGRRRPKFRVQLSGN the binder record lists SPOT peptide array binding signal intensity as 561
